- measured-target: fusion protein PRL
- Sequence (chain, as listed by the source): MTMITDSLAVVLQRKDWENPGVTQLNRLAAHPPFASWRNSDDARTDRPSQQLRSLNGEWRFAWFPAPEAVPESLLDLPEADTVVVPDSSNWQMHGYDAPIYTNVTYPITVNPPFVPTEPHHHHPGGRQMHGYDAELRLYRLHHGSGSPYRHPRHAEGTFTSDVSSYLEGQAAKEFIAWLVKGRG
value-kind: relative cleavage efficiency

protein | value-kind | measured-result
OmpT protease variant OmpT D97M (protein) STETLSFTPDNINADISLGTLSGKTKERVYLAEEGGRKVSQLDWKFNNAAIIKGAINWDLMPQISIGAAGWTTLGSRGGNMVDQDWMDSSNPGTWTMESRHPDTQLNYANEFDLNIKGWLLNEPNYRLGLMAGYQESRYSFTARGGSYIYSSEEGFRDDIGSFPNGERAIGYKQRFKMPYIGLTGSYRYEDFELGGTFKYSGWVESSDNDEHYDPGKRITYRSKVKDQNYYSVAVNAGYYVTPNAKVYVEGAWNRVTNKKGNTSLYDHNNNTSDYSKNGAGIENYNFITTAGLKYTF | relative cleavage efficiency | less than 3%
OmpT protease variant OmpT D97A (protein) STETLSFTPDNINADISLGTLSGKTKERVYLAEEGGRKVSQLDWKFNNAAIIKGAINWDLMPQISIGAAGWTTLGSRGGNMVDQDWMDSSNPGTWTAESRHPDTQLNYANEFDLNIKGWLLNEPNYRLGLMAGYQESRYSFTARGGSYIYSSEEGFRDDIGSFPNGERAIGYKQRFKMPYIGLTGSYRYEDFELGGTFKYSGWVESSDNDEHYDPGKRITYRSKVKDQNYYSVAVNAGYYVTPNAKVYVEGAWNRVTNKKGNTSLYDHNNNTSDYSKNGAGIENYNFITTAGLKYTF | relative cleavage efficiency | less than 3%
OmpT protease variant OmpT D97F (protein) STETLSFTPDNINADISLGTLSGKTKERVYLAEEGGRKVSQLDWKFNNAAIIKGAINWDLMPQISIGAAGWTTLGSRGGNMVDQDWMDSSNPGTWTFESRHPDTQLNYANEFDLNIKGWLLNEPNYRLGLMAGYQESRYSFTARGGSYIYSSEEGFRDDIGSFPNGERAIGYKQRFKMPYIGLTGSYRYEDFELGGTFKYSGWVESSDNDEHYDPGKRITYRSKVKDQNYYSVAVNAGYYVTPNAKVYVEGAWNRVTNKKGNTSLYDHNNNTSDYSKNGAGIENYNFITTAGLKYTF | relative cleavage efficiency | less than 3%
